# Test system: HDQ-P1
# protocolText: normalised response (% of control), CellTiter-Glo; higher = more viable cells (100 = DMSO, 0 = benzethonium chloride kill control)
# measurementContext: incubation time: 72 h
Entries and their normalised response values follow.
experimentalReadout: normalised response (%)

compound	targetDesc	experimentalReadout	readoutNumber
CC(=O)[C@]1(O)Cc2c(O)c3c(c(O)c2[C@@H](O[C@H]2C[C@H](N)[C@H](O)[C@H](C)O2)C1)C(=O)c1ccccc1C3=O [Idarubicin] (10 nM)	HDQ-P1	normalised response	101
O=C(O)CNC(=O)c1c(O)c2ccccc2n(Cc2ccccc2)c1=O [IOX-2] (500 nM)	HDQ-P1	normalised response	102
CNC(=O)c1ccccc1Sc1ccc2c(/C=C/c3ccccn3)n[nH]c2c1 [Axitinib] (100 nM)	HDQ-P1	normalised response	102
CC(C)(C)c1nc(-c2cccc(NS(=O)(=O)c3c(F)cccc3F)c2F)c(-c2ccnc(N)n2)s1 [Dabrafenib] (25 nM)	HDQ-P1	normalised response	103
Nc1ccn([C@@H]2O[C@H](CO)[C@@H](O)C2(F)F)c(=O)n1 [Gemcitabine] (10 nM)	HDQ-P1	normalised response	102
CC1(C)CCC(c2ccc(Cl)cc2)=C(CN2CCN(c3ccc(C(=O)NS(=O)(=O)c4ccc(N[C@H](CCN5CCOCC5)CSc5ccccc5)c(S(=O)(=O)C(F)(F)F)c4)cc3)CC2)C1 [Navitoclax] (100 nM)	HDQ-P1	normalised response	96.8
CCN(CC)CCCC(C)Nc1ccnc2cc(Cl)ccc12 (configuration not stated) [Chloroquine] (1000 nM)	HDQ-P1	normalised response	103

###

Entries and their drug sensitivity score values follow.
# System: MDA-MB-436
# protocolText: drug sensitivity score (DSS), CellTox Green (DSS (AUC-based score)); higher = stronger drug effect (viability inhibition or cytotoxicity); extreme values may be limits of the assay
# measurementContext: incubation time: 72 h

compound	drug sensitivity score
CCN(CC)CCCC(C)Nc1ccnc2cc(Cl)ccc12 (stereo unspecified) [Chloroquine]	8.96
COc1ccc(S(=O)(=O)Nc2cccnc2Nc2ccc(O)cc2)cc1 [ABT-751]	9.27
CC1(COc2ccc3c(c2)ncn3-c2ccc3cccc(N4CCC(N)CC4)c3n2)COC1 [Crenolanib]	18.5
COc1cc(Nc2c(C#N)cnc3cc(OCCCN4CCN(C)CC4)c(OC)cc23)c(Cl)cc1Cl [Bosutinib]	2.19
O=C(CCCCCCC(=O)Nc1ccccc1)NO [Vorinostat]	0
CC1(C)CCC(c2ccc(Cl)cc2)=C(CN2CCN(c3ccc(C(=O)NS(=O)(=O)c4ccc(N[C@H](CCN5CCOCC5)CSc5ccccc5)c(S(=O)(=O)C(F)(F)F)c4)cc3)CC2)C1 [Navitoclax]	0
C/C(=C\c1csc(C)n1)[C@@H]1C[C@@H]2O[C@]2(C)CCC[C@H](C)[C@H](O)[C@@H](C)C(=O)C(C)(C)[C@@H](O)CC(=O)N1 [Ixabepilone]	0
Cc1nc(C(=O)NCC(=O)O)c(O)c2ccc(Oc3ccccc3)cc12 [FG-4592]	0
CC(O)(CS(=O)(=O)c1ccc(F)cc1)C(=O)Nc1ccc(C#N)c(C(F)(F)F)c1 (stereo unspecified) [Bicalutamide]	0
Cc1cc(Nc2nc(N[C@@H](C)c3ncc(F)cn3)ncc2Cl)[nH]n1 [AZD1480]	0
CCNC(=O)c1noc(-c2cc(C(C)C)c(O)cc2O)c1-c1ccc(CN2CCOCC2)cc1 [NVP-AUY922]	0

###

Entries and their normalised viability values follow.
# Test system: CAL-51
# protocolText: normalised viability (% of control), CellTiter-Blue; higher = more viable cells (about 100 = DMSO control)
# measurementContext: 3 nM; incubation time: 72 h
experimentalReadout: normalised viability

>>> print(df.to_string())
                             chemicalsmiles   experimentalreadout  result
0  CNC(=O)c1ccccc1Sc1ccc2c(/C=C/c3ccccn3)n[nH]c2c1  normalised viability    107%
1                 COc1c2occc2cc2ccc(=O)oc12  normalised viability    109%
2  CO[C@@H]1[C@H](N(C)C(=O)c2ccccc2)C[C@H]2O[C@]1(C)n1c3ccccc3c3c4c(c5c6ccccc6n2c5c31)C(=O)NC4  normalised viability   97.5%
3  CO[C@@]12[C@H](COC(N)=O)C3=C(C(=O)C(C)=C(N)C3=O)N1C[C@@H]1N[C@@H]12  normalised viability    119%

###

Entries and their normalised response values follow.
# Test system: DU-4475
# protocolText: normalised response (% of control), CellTiter-Glo; higher = more viable cells (100 = DMSO, 0 = benzethonium chloride kill control)
# measurementContext: incubation time: 72 h
experimentalReadout: normalised response (%)

compound	unitLabel	readoutNumber
CNC(=O)c1ccccc1Sc1ccc2c(/C=C/c3ccccn3)n[nH]c2c1 [Axitinib] (10000 nM)	%	76
COc1ccc(S(=O)(=O)Nc2cccnc2Nc2ccc(O)cc2)cc1 [ABT-751] (10000 nM)	%	43.6
CO[C@@]12[C@H](COC(N)=O)C3=C(C(=O)C(C)=C(N)C3=O)N1C[C@@H]1N[C@@H]12 [Mitomycin C] (10000 nM)	%	69
CCNC(=O)c1noc(-c2cc(C(C)C)c(O)cc2O)c1-c1ccc(CN2CCOCC2)cc1 [NVP-AUY922] (1000 nM)	%	-0.14
CN(C)C(=N)NC(=N)N [Metformin] (100000 nM)	%	79.1
CC1(COc2ccc3c(c2)ncn3-c2ccc3cccc(N4CCC(N)CC4)c3n2)COC1 [Crenolanib] (10000 nM)	%	25
CN[C@@H](C)C(=O)N[C@H]1CN(C(=O)CC(C)C)CC[C@H]2CC[C@@H](C(=O)NC(c3ccccc3)c3ccccc3)N2C1=O [AT-406] (10000 nM)	%	97.9
COc1cc(Nc2c(C#N)cnc3cc(OCCCN4CCN(C)CC4)c(OC)cc23)c(Cl)cc1Cl [Bosutinib] (10000 nM)	%	70
CN(Cc1cnc2nc(N)nc(N)c2n1)c1ccc(C(=O)N[C@@H](CCC(=O)O)C(=O)O)cc1 [Methotrexate] (50000 nM)	%	92.3
CC(C)n1cnc2c(NCCc3ccc(O)cc3)nc(-c3csc4ccccc34)nc21 [StemRegenin 1] (10000 nM)	%	89.3
CC(O)(CS(=O)(=O)c1ccc(F)cc1)C(=O)Nc1ccc(C#N)c(C(F)(F)F)c1 (stereo not drawn) [Bicalutamide] (10000 nM)	%	98.4
C/C(=C\c1csc(C)n1)[C@@H]1C[C@@H]2O[C@]2(C)CCC[C@H](C)[C@H](O)[C@@H](C)C(=O)C(C)(C)[C@@H](O)CC(=O)N1 [Ixabepilone] (1000 nM)	%	100
Cc1cc(Nc2nc(N[C@@H](C)c3ncc(F)cn3)ncc2Cl)[nH]n1 [AZD1480] (1000 nM)	%	81.7

###

# Test system: Hs578T
# protocolText: normalised response (% of control), CellTiter-Glo; higher = more viable cells (100 = DMSO, 0 = benzethonium chloride kill control)
# measurementContext: incubation time: 72 h
experimentalReadout: normalised response (%)

>>> df
                                   compound  targetdesc  experimentalreadout  readoutnumber
0  Cc1nc(C(=O)NCC(=O)O)c(O)c2ccc(Oc3ccccc3)cc12 [FG-4592] (10 nM)      Hs578T  normalised response            103
1  CC(C)n1cnc2c(NCCc3ccc(O)cc3)nc(-c3csc4ccccc34)nc21 [StemRegenin 1] (1 nM)      Hs578T  normalised response            104
2  CCn1c(C(=O)N(C2CC2)C2CC2)cc2c3c(ncn3C)c(Nc3cc(C)n(C)n3)nc21 (10 nM)      Hs578T  normalised response            105
3  CC(C)n1cnc2c(NCCc3ccc(O)cc3)nc(-c3csc4ccccc34)nc21 [StemRegenin 1] (1000 nM)      Hs578T  normalised response            105
4  CCNC(=O)c1noc(-c2cc(C(C)C)c(O)cc2O)c1-c1ccc(CN2CCOCC2)cc1 [NVP-AUY922] (1 nM)      Hs578T  normalised response            101
5    CN(C)C(=N)NC(=N)N [Metformin] (100 nM)      Hs578T  normalised response             94
6  COc1cc(Nc2c(C#N)cnc3cc(OCCCN4CCN(C)CC4)c(OC)cc23)c(Cl)cc1Cl [Bosutinib] (1000 nM)      Hs578T  normalised response            102
7  C=CCn1c(=O)c2cnc(Nc3ccc(N4CCN(C)CC4)cc3)nc2n1-c1cccc(C(C)(C)O)n1 [MK1775] (1 nM)      Hs578T  normalised response           95.8

###

# System: HCC1143
# protocolText: normalised viability (% of control), CellTiter-Blue; higher = more viable cells (about 100 = DMSO control)
# measurementContext: 1000 nM; incubation time: 72 h

compound	normalised viability (%)
C=CCn1c(=O)c2cnc(Nc3ccc(N4CCN(C)CC4)cc3)nc2n1-c1cccc(C(C)(C)O)n1	55.7
CNC(=O)c1ccccc1Sc1ccc2c(/C=C/c3ccccn3)n[nH]c2c1	96.2
CC(C)C[C@H](NC(=O)[C@@H](COC(C)(C)C)NC(=O)[C@H](Cc1ccc(O)cc1)NC(=O)[C@H](CO)NC(=O)[C@H](Cc1c[nH]c2ccccc12)NC(=O)[C@H](Cc1cnc[nH]1)NC(=O)[C@@H]1CCC(=O)N1)C(=O)N[C@@H](CCCNC(=N)N)C(=O)N1CCC[C@H]1C(=O)NNC(N)=O	95
COc1cc(Nc2c(C#N)cnc3cc(OCCCN4CCN(C)CC4)c(OC)cc23)c(Cl)cc1Cl	73
CN(Cc1cnc2nc(N)nc(N)c2n1)c1ccc(C(=O)N[C@@H](CCC(=O)O)C(=O)O)cc1 [Methotrexate]	68.9
COc1c2occc2cc2ccc(=O)oc12	99.1
COc1ccc(S(=O)(=O)Nc2cccnc2Nc2ccc(O)cc2)cc1	56.1
